Biological target: Peptide Deformylase (PDF) (Staphylococcus aureus, UniProt P68826)
Sequence (P68826 1-183): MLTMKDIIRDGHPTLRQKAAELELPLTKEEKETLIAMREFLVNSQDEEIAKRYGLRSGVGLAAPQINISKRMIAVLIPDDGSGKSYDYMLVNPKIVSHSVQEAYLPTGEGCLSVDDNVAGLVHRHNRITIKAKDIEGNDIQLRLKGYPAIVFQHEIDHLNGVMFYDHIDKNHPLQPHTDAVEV
Value Kind: log10 IC50 (log10 of the value in µM)
Values below are the log10 of the recorded IC50, with µM as the unit.

Value lookup for log10 IC50; key = COC(=O)CNC(=O)c1ccc2c(c1)nc(C(Cc1ccccc1)NC(=O)CCC(=O)O)n2Cc1ccc(Cl)cc1 (stereo not shown) [Example 6]
-1.03

Likewise for COC(=O)CNC(=O)c1ccc2c(c1)nc(C(Cc1ccccc1)NC(=O)CCC(=O)NO)n2CCN (stereo not shown) [Example 56] ?
0.20

Likewise for COC(=O)CNC(=O)c1ccc2c(c1)nc(C(CCSC)NC(=O)CCC(=O)O)n2C1CC1 (stereo not shown) [Example 16] ?
1.25

Likewise for COC(=O)CNC(=O)c1ccc2c(c1)nc(C(CC(C)C)NC(=O)CCC(=O)O)n2C1CC1 (stereo not shown) [Example 13] ?
-0.92

Likewise for COC(=O)CNC(=O)c1ccc2c(c1)nc(C(Cc1cccc3ccccc13)NC(=O)CCC(=O)O)n2CCc1cccs1 (stereo not shown) [Example 17] ?
-1.00

Likewise for COC(=O)CNC(=O)c1ccc2c(c1)nc(C(Cc1ccc(O)cc1)NC(=O)CCC(=O)O)n2C1CC1 (stereo not shown) [Example 25] ?
1.45

====

Molecular target: Peptide Deformylase (PDF) (Escherichia coli)
Sequence (P0A6K3 whole entry): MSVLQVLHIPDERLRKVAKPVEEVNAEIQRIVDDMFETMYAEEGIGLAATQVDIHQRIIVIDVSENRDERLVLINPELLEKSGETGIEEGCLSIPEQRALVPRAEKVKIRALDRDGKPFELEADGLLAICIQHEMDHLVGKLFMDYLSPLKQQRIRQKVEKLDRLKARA
Value Kind: pIC50
Formally, pIC50 is defined as -log10 of the concentration c, with c in mol/L.

Value lookup for pIC50; key = CCC(NC(=O)CCC(=O)O)c1nc2cc(C(=O)NCC(=O)OC)ccc2n1C1CC1 (centres unmarked)
5.25

Likewise for COC(=O)CNC(=O)c1ccc2c(c1)nc(C(Cc1ccccc1)NC(=O)CCC(=O)O)n2Cc1ccco1 (centres unmarked) ?
4.89

Likewise for CCC(NC(=O)CCC(=O)O)c1nc2cc(C(=O)NCC(=O)OC)ccc2n1Cc1ccco1 (centres unmarked) ?
5.55

Likewise for CCCCn1c(C(CC(C)C)NC(=O)CCC(=O)O)nc2cc(C(=O)NCC(=O)OC)ccc21 (centres unmarked) ?
5.14

Likewise for COC(=O)CNC(=O)c1ccc2c(c1)nc(C(CC(C)C)NC(=O)CCC(=O)O)n2C1CC1 (centres unmarked) ?
5.40

Likewise for CCCCn1c(C(Cc2ccccc2)NC(=O)CCC(=O)O)nc2cc(C(=O)NCC(=O)OC)ccc21 (centres unmarked) ?
5.55

Likewise for COC(=O)CNC(=O)c1ccc2c(c1)nc(C(CCc1ccccc1)NC(=O)CCC(=O)NO)n2C1CC1 (centres unmarked) ?
5.64

====

Molecular target: Peptide Deformylase (PDF) (Staphylococcus aureus, UniProt P68826)
Sequence (P68826 1-183): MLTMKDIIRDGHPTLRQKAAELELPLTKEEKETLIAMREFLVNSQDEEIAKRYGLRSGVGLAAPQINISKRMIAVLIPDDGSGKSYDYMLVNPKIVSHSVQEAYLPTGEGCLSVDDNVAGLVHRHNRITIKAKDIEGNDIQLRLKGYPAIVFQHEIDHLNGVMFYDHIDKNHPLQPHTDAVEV
Value Kind: IC50

Value lookup for IC50; key = COC(=O)CNC(=O)c1ccc2c(c1)nc(C(Cc1ccccc1)NC(=O)CCS)n2CCO (stereo not shown) [Example 22]
> 200 µM

Likewise for COC(=O)CNC(=O)c1ccc2c(c1)nc(C(Cc1ccc(O)cc1)NC(=O)CCS)n2CC1CCCCC1 (stereo not shown) [Example 21] ?
> 200 µM

Likewise for COC(=O)CNC(=O)c1ccc2c(c1)nc(C(Cc1ccccc1)NC(=O)CCC(=O)NO)n2Cc1ccc(Cl)cc1 (stereo not shown) [Example 40] ?
0.021 µM

Likewise for COC(=O)CNC(=O)c1ccc2c(c1)nc(C(Cc1ccccc1)NC(=O)CCS)n2Cc1ccc(Cl)cc1 (stereo not shown) [Example 2] ?
6.1 µM
